System: HCT-116 colon
Assay: NCI tumour cell line growth inhibition, 48 h; in the data active = GI50 below about 0.43 µM; inactive = the rest
Parameter call: string, one of yes (1) (active), no (0) (inactive)

These solved cases illustrate the format of a correct answer.
molecule: C[Se]C(=O)CC1=C2C=C(F)C=CC2/C(=C\c2ccc(S(C)=O)cc2)C1C (stereo not given)
subject_of_test: HCT-116 colon
label_class: yes (1)
--
molecule: COc1cc(C2C(C#N)=C(N)OC3=C2C(=O)c2ccccc2C3=O)cc(OC)c1OC (stereo not given)
subject_of_test: HCT-116 colon
label_class: no (0)
--
molecule: CC(=O)Oc1c(OC(C)=O)c(-c2ccc(O)c(O)c2)c(O)c(O)c1-c1ccc(O)cc1
subject_of_test: HCT-116 colon
label_class: no (0)
--
molecule: Fc1ccc(-c2ncn(C3CCNCC3)c2-c2ccnc(Oc3cccc(F)c3)n2)cc1
subject_of_test: HCT-116 colon
label_class: no (0)

Could you kindly confirm the outcome this assay logged for COc1ccc(NC(=O)c2cc(OC)c(OC)c(OC)c2)cc1O ? no (0)

----------
Let's look at some compounds and their measured TGI.
Test system: A549 NSCLC
Test: NCI tumour cell line growth inhibition, 48 h

compound: O=C(/C=C\c1ccnc2ccccc12)c1ccc([N+](=O)[O-])cc1
TGI: > 100 µM
--
compound: Cc1nc(C(N)=S)sc1C(=O)/C=C/c1cccc(O)c1
TGI: > 100 µM
--
compound: O=C(NNS(=O)(=O)c1cc(C(F)(F)F)cc(C(F)(F)F)c1)c1cnn(-c2ccc(Cl)cc2)c1C(F)(F)F
TGI: 33.2 µM
--
compound: Cc1cc(C)c(C(=O)OC(c2ccccc2)C(c2ccccc2)N2CCOCC2)c(C)c1 (stereo unspecified)
TGI: > 100 µM
--
compound: COc1ccc2c(c1)CC[C@@H]1C2CC[C@]2(C)C(=O)NC(=O)CC12 (stereo partly specified)
TGI: > 100 µM

Which measured TGI value corresponds to Cn1cnc([N+](=O)[O-])c1Sc1ncnc2c1ncn2C1OC(CO)C(O)C1O (stereo unspecified) ? > 100 µM

Requested field: TGI. Item: NC(CCCCNc1ccn(C2OC(CO)C(O)C2O)c(=O)n1)C(=O)O (stereo unspecified) > 100 µM

Entry O/N=C\c1cc(O)c(O)c(/C=N/O)c1 : reported TGI = ? > 100 µM

Data request, read-out TGI, for N#Cc1c(C#N)c(SSc2c(C#N)c(C#N)c(N)n2-c2ccccc2)n(-c2ccccc2)c1N > 57.2 µM

# query: TGI of entry CCNCC(O)c1ccc(N)c([N+](=O)[O-])c1 (stereo unspecified) > 100 µM

----------
Tested on: LOX IMVI melanoma
Experiment: NCI tumour cell line growth inhibition, 48 h
measured_metric: TGI

molecule: Cc1cc(C)nc(NS(=O)(=O)c2ccc(NC(=O)c3cccc4cc5ccccc5nc34)cc2)n1
TGI: 56.1 µM
//
molecule: Cc1n[nH]c(=O)n1N=C(c1ccccc1)c1ccccc1
TGI: > 100 µM
//
molecule: Cc1ccc(Nc2ccc(Nc3ccc(C)cc3)c3c2C(=O)c2c(O)ccc(O)c2C3=O)cc1
TGI: > 100 µM
//
molecule: O=C(NC(Nc1ccc(F)c(Cl)c1)(C(F)(F)F)C(F)(F)F)C(C(F)(F)F)C(F)(F)F
TGI: 29.9 µM
//
molecule: COCN1C(=O)[C@@H]2CCCN2C(=O)c2cc([N+](=O)[O-])ccc21
TGI: > 100 µM

For the next question, use this molecule.
Fill blank: measured TGI of the molecule O=C(NCc1ccccc1)c1cnc(Cl)cn1 is ____. > 100 µM
